Recorded values, source patent US20240218022A1.

- tested target: mouse VISTA (mVISTA) (Mus musculus, UniProt Q9D659)
- Construct: expressed in transfected cells; host or cells: Human embryonic kidney 293T cells
- protocol notes: Cell-Based Binding High-Content Assay For mVISTA (HC CBA mVISTA)
- condition label: the 19th table, scaffold drawing 22; read-out: HC CBA mVISTA IC50
- Text: Cell-Based Binding High-Content Assay For mVISTA Human embryonic kidney 293T cells (293T) expressing mouse VISTA (mVISTA) were used for the assessment of compounds competing with the binding of a biotinylated peptide. […] The plates were washed 3 times in dPBS, sealed, and read on a CellInsight NXT High Content Screening Platform IC903000 (Thermo Scientific). […]
Positions of bridges follow the written chain, without caps; N, C: chain ends. Non-standard residues stand in square brackets, D forms with d. Residues, ends and D or L forms follow the SMILES beside them. Phe(3-Me) = Cc1cccc(C[C@H](N)C(=O)O)c1; Ahp(2) = CCCCC[C@H](N)C(=O)O; NHexGly = CCCCCCNCC(=O)O
quantity kind: pIC50
Please treat pIC50 as minus the base-10 logarithm of the molar concentration.

IN: Note pIC50 for the molecule shown: CCCCCCN1CC(=O)N[C@@H](Cc2ccc(O)cc2)C(=O)N[C@@H](CC(C)C)C(=O)N[C@@H](CC(N)=O)C(=O)N[C@@H](CCCNC(=N)N)C(=O)N[C@@H](CC(C)C)C(=O)N[C@@H](CCCCC)C(=O)N2CCC[C@H]2C(=O)N[C@@H](C(C)C)C(=O)N[C@@H](C(C)C)C(=O)N[C@H](C(=O)N[C@@H](CO)C(=O)O)CSCC(=O)N[C@@H](Cc2cccc(C)c2)C(=O)N[C@@H](Cc2ccc(O)cc2)C(=O)N[C@@H](CC(=O)O)C1=O [compound 1434] ({CH2CO}-[Phe(3-Me)]YD[NHexGly]YLNRL[Ahp(2)]PVVCS-OH; thioether N-14)
OUT: 7.69

* * *

- tested target: mouse VISTA (mVISTA) (Mus musculus, UniProt Q9D659)
- Construct: expressed in transfected cells; host or cells: Human embryonic kidney 293T cells
- Sequence (Q9D659 33-308): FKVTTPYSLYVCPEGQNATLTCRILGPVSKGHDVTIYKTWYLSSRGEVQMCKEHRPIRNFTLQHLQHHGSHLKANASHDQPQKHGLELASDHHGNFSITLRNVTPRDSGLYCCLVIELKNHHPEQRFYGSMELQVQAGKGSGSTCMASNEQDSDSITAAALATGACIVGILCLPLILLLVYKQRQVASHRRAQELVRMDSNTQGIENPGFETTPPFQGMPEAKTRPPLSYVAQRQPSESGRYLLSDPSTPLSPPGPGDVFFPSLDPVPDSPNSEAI
- protocol notes: Cell-Based Binding High-Content Assay For mVISTA (HC CBA mVISTA)
- condition label: the 20th table, scaffold drawing 23; read-out: HC CBA mVISTA IC50
Positions of bridges follow the written chain, without caps; N, C: chain ends. Non-standard residues stand in square brackets, D forms with d. Residues, ends and D or L forms follow the SMILES beside them. Trp(1-Me) = Cn1cc(C[C@H](N)C(=O)O)c2ccccc21; 1Nal = N[C@@H](Cc1cccc2ccccc12)C(=O)O; Ahp(2) = CCCCC[C@H](N)C(=O)O; NHexGly = CCCCCCNCC(=O)O; Nle = CCCC[C@H](N)C(=O)O
quantity kind: IC50 (nM)
Respond with the bare value in nM.

Some molecules with recorded IC50:
molecule	tested target	quantity kind	test value
CCCCCCN1CC(=O)N[C@@H](Cc2ccc(O)cc2)C(=O)N[C@@H](CCCC)C(=O)N[C@@H](CC(N)=O)C(=O)N[C@@H](CCCNC(=N)N)C(=O)N[C@@H](CC(C)C)C(=O)N[C@@H](CCCCC)C(=O)N2CCC[C@H]2C(=O)N[C@@H](C(C)C)C(=O)N[C@@H](CO)C(=O)N[C@H](C(=O)NCC(N)=O)CSCC(=O)N[C@@H](Cc2ccc(O)cc2)C(=O)N[C@@H](Cc2ccc(O)cc2)C(=O)N[C@@H](CC(=O)O)C1=O [compound 1474] ({CH2CO}-YYD[NHexGly]Y[Nle]NRL[Ahp(2)]PVSCG-NH2; thioether N-14)	mouse VISTA (mVISTA) (Mus musculus, UniProt Q9D659)	IC50	40.4
CCCCCCN1CC(=O)N[C@@H](Cc2ccc(O)cc2)C(=O)N[C@@H](CCCC)C(=O)N[C@@H](CC(N)=O)C(=O)N[C@@H](CCCNC(=N)N)C(=O)N[C@@H](CC(C)C)C(=O)N[C@@H](CCCCC)C(=O)N2CCC[C@H]2C(=O)N[C@@H](C(C)C)C(=O)N[C@@H](CO)C(=O)N[C@H](C(=O)NCC(=O)O)CSCC(=O)N[C@@H](Cc2ccc(O)cc2)C(=O)N[C@@H](Cc2ccc(O)cc2)C(=O)N[C@@H](CC(=O)O)C1=O [compound 1473] ({CH2CO}-YYD[NHexGly]Y[Nle]NRL[Ahp(2)]PVSCG-OH; thioether N-14)	mouse VISTA (mVISTA) (Mus musculus, UniProt Q9D659)	IC50	3.2

IN: Provide measured IC50 value, entry: CCCCCCN1CC(=O)N[C@@H](Cc2ccc(O)cc2)C(=O)N[C@@H](CCCC)C(=O)N[C@@H](CC(N)=O)C(=O)N[C@@H](CCCNC(=N)N)C(=O)N[C@@H](CC(C)C)C(=O)N[C@@H](CCCCC)C(=O)N2CCC[C@H]2C(=O)N[C@@H](C(C)C)C(=O)N[C@@H](CO)C(=O)N[C@H](C(=O)NCC(=O)O)CSCC(=O)N[C@@H](Cc2cccc3ccccc23)C(=O)N[C@@H](Cc2ccc(O)cc2)C(=O)N[C@@H](CC(=O)O)C1=O [compound 1452] ({CH2CO}-[1Nal]YD[NHexGly]Y[Nle]NRL[Ahp(2)]PVSCG-OH; thioether N-14)
OUT: 19.9

IN: Report IC50 for CCCCCCN1CC(=O)N[C@@H](Cc2ccc(O)cc2)C(=O)N[C@@H](CCCC)C(=O)N[C@@H](CC(N)=O)C(=O)N[C@@H](CCCNC(=N)N)C(=O)N[C@@H](CC(C)C)C(=O)N[C@@H](CCCCC)C(=O)N2CCC[C@H]2C(=O)N[C@@H](C(C)C)C(=O)N[C@@H](CC(=O)O)C(=O)N[C@H](C(=O)NCC(=O)O)CSCC(=O)N[C@@H](Cc2ccccc2)C(=O)N[C@@H](Cc2cn(C)c3ccccc23)C(=O)N[C@@H](CC(=O)O)C1=O [compound 1455] ({CH2CO}-F[Trp(1-Me)]D[NHexGly]Y[Nle]NRL[Ahp(2)]PVDCG-OH; thioether N-14)
OUT: 3.5

* * *

- tested target: mouse VISTA (mVISTA) (Mus musculus)
- Construct: expressed in transfected cells; host or cells: Human embryonic kidney 293T cells
- Sequence (Q9D659 33-308): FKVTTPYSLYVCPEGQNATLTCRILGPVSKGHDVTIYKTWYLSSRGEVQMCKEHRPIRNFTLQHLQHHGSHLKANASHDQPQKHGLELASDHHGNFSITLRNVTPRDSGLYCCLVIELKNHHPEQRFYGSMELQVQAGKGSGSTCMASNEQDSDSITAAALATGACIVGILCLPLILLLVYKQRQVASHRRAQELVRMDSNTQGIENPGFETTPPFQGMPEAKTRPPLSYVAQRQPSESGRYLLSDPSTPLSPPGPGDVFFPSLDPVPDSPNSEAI
- protocol notes: Cell-Based Binding High-Content Assay For mVISTA (HC CBA mVISTA)
- condition label: cell-based binding high-content assay; read-out: HC CBA miPrISTA IC50
quantity kind: pIC50
FYI, pIC50 means -log10 of a concentration in mol per litre.

IN: Dear colleague, please send me the reported pIC50 for CCCCCCN1CC(=O)N[C@@H](Cc2ccc(O)cc2)C(=O)N[C@@H](CC(C)C)C(=O)N[C@@H](CC(N)=O)C(=O)N[C@@H](CCCNC(=N)N)C(=O)N[C@@H](CC(C)C)C(=O)N[C@@H](CCCCC)C(=O)N2CCC[C@H]2C(=O)N[C@@H](C(C)C)C(=O)N[C@@H](C(C)C)C(=O)N[C@H](C(=O)NCCOCCOCC(=O)N[C@@H](CC(=O)O)C(=O)NCCOCCOCC(=O)NCCCCCCCCCCC(=O)O)CSCC(=O)N[C@@H](Cc2ccccc2)C(=O)N[C@@H](Cc2cccc(C)c2)C(=O)N[C@@H](CC(=O)O)C1=O (stereo in doubt) [compound 2289] when you can.
OUT: 7.80

* * *

- tested target: mouse VISTA (mVISTA) (Mus musculus)
- Construct: expressed in transfected cells; host or cells: Human embryonic kidney 293T cells
- Sequence (Q9D659 33-308): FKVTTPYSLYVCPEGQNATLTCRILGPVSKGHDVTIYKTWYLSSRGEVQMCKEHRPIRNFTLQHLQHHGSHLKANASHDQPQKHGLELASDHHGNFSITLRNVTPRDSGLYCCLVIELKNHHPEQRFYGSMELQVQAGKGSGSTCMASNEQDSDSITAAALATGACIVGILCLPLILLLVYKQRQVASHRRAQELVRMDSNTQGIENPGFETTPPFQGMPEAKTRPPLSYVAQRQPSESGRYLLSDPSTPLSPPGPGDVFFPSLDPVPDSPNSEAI
- protocol notes: Cell-Based Binding High-Content Assay For mVISTA (HC CBA mVISTA)
- condition label: cell-based binding high-content assay, mVISTA; the 15th table; read-out: HC CBA mVISTA IC50
- Excerpt: Cell-Based Binding High-Content Assay For mVISTA Human embryonic kidney 293T cells (293T) expressing mouse VISTA (mVISTA) were used for the assessment of compounds competing with the binding of a biotinylated peptide. […] The plates were washed 3 times in dPBS, sealed, and read on a CellInsight NXT High Content Screening Platform IC903000 (Thermo Scientific). […]
Positions of bridges follow the written chain, without caps; N, C: chain ends. Non-standard residues stand in square brackets, D forms with d. Residues, ends and D or L forms follow the SMILES beside them. 2Nal = N[C@@H](Cc1ccc2ccccc2c1)C(=O)O; Gly(cPr) = N[C@H](C(=O)O)C1CC1; Ahp(2) = CCCCC[C@H](N)C(=O)O; NMeNle = CCCC[C@H](NC)C(=O)O; NHexGly = CCCCCCNCC(=O)O; Nle = CCCC[C@H](N)C(=O)O; Orn = NCCC[C@H](N)C(=O)O
Property: pIC50; scope: individual compounds
Field pIC50 (float): negative decimal logarithm of the concentration in molar.

compound	tested target	test value
CCCCCCN1CC(=O)N[C@@H](Cc2ccc(O)cc2)C(=O)N[C@@H](CCCC)C(=O)N[C@@H](CC(=O)O)C(=O)N[C@@H](CCCN)C(=O)N[C@@H](CC(C)C)C(=O)N[C@@H](CCCCC)C(=O)N2CCC[C@H]2C(=O)N[C@@H](C(C)C)C(=O)N[C@@H](CC(=O)O)C(=O)N[C@H](C(=O)N[C@@H](CO)C(N)=O)CSCC(=O)N[C@@H](Cc2ccc3ccccc3c2)C(=O)N[C@@H](Cc2c[nH]c3ccccc23)C(=O)N[C@@H](CC(=O)O)C1=O [compound 1236] ({CH2CO}-[2Nal]WD[NHexGly]Y[Nle]D[Orn]L[Ahp(2)]PVDCS-NH2; thioether N-14)	mouse VISTA (mVISTA) (Mus musculus)	7.56
CCCCCCN1CC(=O)N[C@@H](Cc2ccc(O)cc2)C(=O)N[C@@H](CCCC)C(=O)N[C@@H](CC(N)=O)C(=O)N[C@@H](CCCNC(=N)N)C(=O)N[C@@H](CC(C)C)C(=O)N[C@@H](CCCCC)C(=O)N2CCC[C@H]2C(=O)N[C@@H](C(C)C)C(=O)N[C@@H](C2CC2)C(=O)N[C@H](C(=O)NCC(=O)O)CSCC(=O)N[C@@H](Cc2ccc3ccccc3c2)C(=O)N[C@@H](Cc2c[nH]c3ccccc23)C(=O)N[C@@H](CC(=O)O)C1=O [compound 1232] ({CH2CO}-[2Nal]WD[NHexGly]Y[Nle]NRL[Ahp(2)]PV[Gly(cPr)]CG-OH; thioether N-14)	mouse VISTA (mVISTA) (Mus musculus)	7.44
CCCCCCN1CC(=O)N[C@@H](Cc2ccc(O)cc2)C(=O)N[C@@H](CCCC)C(=O)N[C@@H](CC(N)=O)C(=O)N[C@@H](CCCNC(=N)N)C(=O)N(C)[C@@H](CCCC)C(=O)N[C@@H](CCCCC)C(=O)N2CCC[C@H]2C(=O)N[C@@H](C(C)C)C(=O)N[C@@H](CC(N)=O)C(=O)N[C@H](C(=O)NCC(=O)O)CSCC(=O)N[C@@H](Cc2ccc3ccccc3c2)C(=O)N[C@@H](Cc2c[nH]c3ccccc23)C(=O)N[C@@H](CC(=O)O)C1=O [compound 1249] ({CH2CO}-[2Nal]WD[NHexGly]Y[Nle]NR[NMeNle][Ahp(2)]PVNCG-OH; thioether N-14)	mouse VISTA (mVISTA) (Mus musculus)	7.86

IN: Indicate its recorded pIC50; the compound in question is CCCCCCN1CC(=O)N[C@@H](Cc2ccc(O)cc2)C(=O)N[C@@H](CCCC)C(=O)N[C@@H](CC(N)=O)C(=O)N[C@@H](CCCNC(=N)N)C(=O)N(C)[C@@H](CCCC)C(=O)N[C@@H](CCCCC)C(=O)N2CCC[C@H]2C(=O)N[C@@H](C(C)C)C(=O)N[C@@H](C(C)C)C(=O)N[C@H](C(=O)NCC(=O)O)CSCC(=O)N[C@@H](Cc2ccc3ccccc3c2)C(=O)N[C@@H](Cc2c[nH]c3ccccc23)C(=O)N[C@@H](CC(=O)O)C1=O [compound 1248] ({CH2CO}-[2Nal]WD[NHexGly]Y[Nle]NR[NMeNle][Ahp(2)]PVVCG-OH; thioether N-14)
OUT: 7.42
